Assignment: determine reported GI50 for the given molecules.
# Tested on: KM-20L2
# EXPERIMENT_SUMMARY: NCI tumour cell line growth inhibition, 48 h
Calls of active or inactive are those of the source. No stated cut-off is given here; in the data, active = GI50 up to about 1.1 µM and inactive = higher.

response.value for `Clc1cccc(-c2nnc(-c3nn(-c4ccccc4)c4nc5ccccc5nc34)o2)c1` (field: GI50) = > 100 µM (inactive)

Sample `NC(=O)N1N=C2c3ccccc3OC[C@H]2[C@@H]1c1ccccc1` ; GI50 observed: 23.4 µM (inactive)

Looking up `O=[N+]([O-])c1cnccc1-n1nnc2ccccc21` , I see its GI50 listed as 29.2 µM (inactive)

For `CCN(CC)CCNc1ccc2nnn3c4ccc(OC)cc4c(=O)c1c23` the molecule record lists GI50 as 5.27 µM (inactive)

For record O=NN(CCCl)C(=O)NCCCl [CARMUSTINE] the listed GI50 is 94 µM (inactive)

Quick note, GI50 for `CC1(C)CC(=O)C2=C(C1)S/C(=C1/SC3=C(S1)C(=O)CC(C)(C)C3)S2` landed at > 251 µM (inactive)

Memo: OC1/C(=C/c2ccccc2)CNC/C1=C\c1ccccc1 (stereo unspecified) , reported GI50: > 100 µM (inactive)

In plain terms, O=C(CC(=O)c1cccc2ccccc12)C(=O)NC1C2CC3CC(C2)CC1C3 (stereo unspecified) has a documented GI50 of > 100 µM (inactive)

The reported GI50 of the molecule `CCCCCCCCCCCC(=O)OC[C@@H](C[As](=O)(O)O)OC(=O)CCCCCCCCCCC` was 13.4 µM (inactive)

Lab note: `O=c1cccccc1O.O=c1cccccc1O.O=c1cccccc1O.[SiH4]` gave GI50 of 3.75 µM (inactive)

So, `CN(C)CC/C(=N\Nc1ccc(Cl)cc1Cl)c1ccccc1` ? Its GI50 was 14.3 µM (inactive)
